Recorded measurements of Kd, one per entry
Target: T1, human HGF (R&D material and Peprotech material, values averaged over both) (human, UniProt P14210 32-728)
T1 construct: As printed they differ in one letter
T1 sequence (P14210 32-728 limits assumed): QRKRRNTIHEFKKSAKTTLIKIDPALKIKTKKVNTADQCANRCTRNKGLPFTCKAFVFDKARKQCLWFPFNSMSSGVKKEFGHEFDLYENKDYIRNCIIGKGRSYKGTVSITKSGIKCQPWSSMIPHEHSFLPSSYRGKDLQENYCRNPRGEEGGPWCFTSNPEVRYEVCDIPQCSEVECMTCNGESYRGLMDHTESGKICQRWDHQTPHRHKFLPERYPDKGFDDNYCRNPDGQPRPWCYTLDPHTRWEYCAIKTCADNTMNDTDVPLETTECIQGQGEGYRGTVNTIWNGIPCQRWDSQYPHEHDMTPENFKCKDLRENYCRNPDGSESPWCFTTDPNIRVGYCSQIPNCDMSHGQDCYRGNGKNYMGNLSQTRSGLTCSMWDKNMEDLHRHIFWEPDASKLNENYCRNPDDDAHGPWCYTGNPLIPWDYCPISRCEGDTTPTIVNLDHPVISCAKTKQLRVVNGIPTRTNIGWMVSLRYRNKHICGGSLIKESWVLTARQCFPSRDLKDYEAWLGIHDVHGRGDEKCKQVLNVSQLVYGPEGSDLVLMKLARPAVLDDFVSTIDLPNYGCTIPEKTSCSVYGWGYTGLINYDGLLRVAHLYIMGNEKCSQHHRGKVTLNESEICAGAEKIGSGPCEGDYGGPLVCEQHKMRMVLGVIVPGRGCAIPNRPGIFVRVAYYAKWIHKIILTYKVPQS
Test: SPR (Biacore T100), summary table
RECORDED_METRIC: Kd

>>> experimental_value("1E2 (VHH, anti-HGF Nanobody clone; not shown: c-myc and His6 tags) VHH: EVQLVESGGGLVQPGGSLRLSCAASGRTFSSYAMGWFRQAPGKEREFVAGISWSGSSSYYADSVKGRFTISRDNAKNTVYLQMNSLKPEDTAVYYCAADPVGRADLYEYDYWGQGTQVTVSS")
"1.36 nM"
>>> experimental_value("6G6 (VHH, anti-HGF Nanobody clone; not shown: c-myc and His6 tags) VHH: EVQLVESGGGLAQAGGSLRLSCAASGRSLSNYAMGWFRQAPGKEREIVCAISRSGSITTYADSVKGRFTIAKDNAANTVYLQMNSLKPEDTAAYYCAADPMYYGIPDQNWDYWGQGTQVTVSS")
"7.37 nM"
>>> experimental_value("1E9 (VHH, anti-HGF Nanobody clone; not shown: c-myc and His6 tags) VHH: EVQLVESGGGLVQPGGSLRLSCAASGFTLDHYTIGWFRQAPGNEREGVSCISSLDGSTYYADSVKGRFTISRDNAKDTVYLQMNSLKPEDTAVYYCAVAGCGAYGLIPYDYWGQGTQVTVSS")
"7.16 nM"
>>> experimental_value("6B2 (VHH, anti-HGF Nanobody clone; not shown: c-myc and His6 tags) VHH: EVQLVESGGGLVQAGGSLRLSCAASGRTFSSYAMGWFRQAPGKEREFVAAINWSGDSTYYADSVKGRFTISRDNAKNTVYLQMNSLKPEDTAVYYCAAGDVGRPDLYEYDYWGQGTQVTVSS")
"≤ 0.08 nM"
>>> experimental_value("6E10 (VHH, anti-HGF Nanobody clone; not shown: c-myc and His6 tags) VHH: EVQLVESGGGLVQAGGSLRLSCAASGRTDSSYAMGWFRQAPGKEHEFVAAISWSGGSTYYADSVKGRFTISRDNAKNTLYLQMNSLKPEDTAVYYCGASYRWGITHEYEYWGQGTQVTVSS")
"1.14 nM"
